Source listed as paper PMC8536414.

Assay: Pharmacokinetic study of IPA in rats after i.v. or oral administration (LC-MS/MS of plasma, noncompartmental analysis)
Assay type: in vivo, Sprague-Dawley rats
Details: male, Sprague-Dawley, plasma, iv; rat, i.v. 5 mg/kg; read-out: AUC(0~24)
Description: Male Sprague-Dawley rats (220-250 g) from Shanghai Slac Laboratory Animal Co., Ltd. (Shanghai, China) (2018(hu)-08-0013) were housed in a climate-controlled facility (22 ± 2°C, 46 ± 20% relative humidity, 12 h light/dark cycle) with unlimited food and water access. […] Plasma IPA concentrations were determined using the calibration curve established above based on peak area ratios from individual injection samples. […]
MEASURED_QUANTITY: AUC(0-t) (ng·h/mL)
Hi! Could you send only the number? It should be in ng·h/mL, unit omitted.

AUC(0-t) reading for C=C[C@@]1(C)CC[C@H]2C(=CC[C@@H]3[C@]2(C)CCC[C@@]3(C)C(=O)O)C1 : 745

* * *

Assay: Pharmacokinetic study of IPA in rats after i.v. or oral administration (LC-MS/MS of plasma, noncompartmental analysis)
Assay type: in vivo, Sprague-Dawley rats
Conditions: male, Sprague-Dawley, plasma, po; rat, p.o. 200 mg/kg
MEASURED_QUANTITY: AUC(0-inf) (ng·h/mL)
Number in ng·h/mL, nothing else.

Consider C=C[C@@]1(C)CC[C@H]2C(=CC[C@@H]3[C@]2(C)CCC[C@@]3(C)C(=O)O)C1 . Its measured AUC(0-inf) is 3190

* * *

Assay: Pharmacokinetic study of IPA in rats after i.v. or oral administration (LC-MS/MS of plasma, noncompartmental analysis)
Assay type: in vivo, Sprague-Dawley rats
Settings: male, Sprague-Dawley, plasma, oral; rat, p.o. 100 mg/kg vs i.v. 5 mg/kg; read-out: absolute bioavailability
MEASURED_QUANTITY: bioavailability (%)
Value expressed in %; do not type the unit.

// sample C=C[C@@]1(C)CC[C@H]2C(=CC[C@@H]3[C@]2(C)CCC[C@@]3(C)C(=O)O)C1 [IPA, isopimaric acid] , its bioavailability was 17.5

* * *

Test: Pharmacokinetic study of IPA in rats after i.v. or oral administration (LC-MS/MS of plasma, noncompartmental analysis)
Type: in vivo, Sprague-Dawley rats
Conditions: male, Sprague-Dawley, plasma, po; rat, p.o. 100 mg/kg
MEASURED_QUANTITY: half-life (h)
Please state the figure in h; there is no need to write the unit.

Record C=C[C@@]1(C)CC[C@H]2C(=CC[C@@H]3[C@]2(C)CCC[C@@]3(C)C(=O)O)C1 . Reported half-life: 5.5

* * *

Assay: Pharmacokinetic study of IPA in rats after i.v. or oral administration (LC-MS/MS of plasma, noncompartmental analysis)
Type: in vivo, Sprague-Dawley rats
Details: male, Sprague-Dawley, plasma, iv; rat, i.v. 5 mg/kg
MEASURED_QUANTITY: half-life (min)
Unit min implied. Number only.

Sure, the documented half-life for C=C[C@@]1(C)CC[C@H]2C(=CC[C@@H]3[C@]2(C)CCC[C@@]3(C)C(=O)O)C1 [IPA, isopimaric acid] is 396

* * *

Test: Pharmacokinetic study of IPA in rats after i.v. or oral administration (LC-MS/MS of plasma, noncompartmental analysis)
Format: in vivo, Sprague-Dawley rats
Conditions: male, Sprague-Dawley, plasma, iv; rat, i.v. 5 mg/kg
MEASURED_QUANTITY: AUC(0-inf)
Don't forget the unit after the value.

Recorded result, C=C[C@@]1(C)CC[C@H]2C(=CC[C@@H]3[C@]2(C)CCC[C@@]3(C)C(=O)O)C1 , AUC(0-inf): 818 ng·h/mL

* * *

Test: Pharmacokinetic study of IPA in rats after i.v. or oral administration (LC-MS/MS of plasma, noncompartmental analysis)
Assay type: in vivo, Sprague-Dawley rats
Conditions: male, Sprague-Dawley, plasma, po; rat, p.o. 100 mg/kg
MEASURED_QUANTITY: MRT (h)
Dear colleague, please return just the value in h, with no unit written.

Reported MRT for C=C[C@@]1(C)CC[C@H]2C(=CC[C@@H]3[C@]2(C)CCC[C@@]3(C)C(=O)O)C1 [IPA, isopimaric acid] was 7.6

* * *

Assay: Pharmacokinetic study of IPA in rats after i.v. or oral administration (LC-MS/MS of plasma, noncompartmental analysis)
Format: in vivo, Sprague-Dawley rats
Conditions: male, Sprague-Dawley, plasma, po; rat, p.o. 200 mg/kg; read-out: AUC(0~24)
MEASURED_QUANTITY: AUC(0-t) (ng·h/mL)
Please state the figure in ng·h/mL; there is no need to write the unit.

// C=C[C@@]1(C)CC[C@H]2C(=CC[C@@H]3[C@]2(C)CCC[C@@]3(C)C(=O)O)C1 [IPA, isopimaric acid] : AUC(0-t) value = 3180

* * *

Test: Pharmacokinetic study of IPA in rats after i.v. or oral administration (LC-MS/MS of plasma, noncompartmental analysis)
Type: in vivo, Sprague-Dawley rats
Settings: male, Sprague-Dawley, plasma, po; rat, p.o. 200 mg/kg; read-out: CL/F (converted)
Method: Male Sprague-Dawley rats (220-250 g) from Shanghai Slac Laboratory Animal Co., Ltd. (Shanghai, China) (2018(hu)-08-0013) were housed in a climate-controlled facility (22 ± 2°C, 46 ± 20% relative humidity, 12 h light/dark cycle) with unlimited food and water access. […] Plasma IPA concentrations were determined using the calibration curve established above based on peak area ratios from individual injection samples. […]
MEASURED_QUANTITY: CL/F (mL/min/kg)
Answer in mL/min/kg, number only, no unit symbol.

The molecule listed as C=C[C@@]1(C)CC[C@H]2C(=CC[C@@H]3[C@]2(C)CCC[C@@]3(C)C(=O)O)C1 has a reported CL/F of 1330

* * *

Test: Pharmacokinetic study of IPA in rats after i.v. or oral administration (LC-MS/MS of plasma, noncompartmental analysis)
Assay type: in vivo, Sprague-Dawley rats
Details: male, Sprague-Dawley, plasma, po; rat, p.o. 100 mg/kg; read-out: CL/F (converted)
MEASURED_QUANTITY: CL/F (mL/min/kg)
Report as a plain number; the unit mL/min/kg is understood.

Entry C=C[C@@]1(C)CC[C@H]2C(=CC[C@@H]3[C@]2(C)CCC[C@@]3(C)C(=O)O)C1 ; CL/F = 983

* * *

Assay: Pharmacokinetic study of IPA in rats after i.v. or oral administration (LC-MS/MS of plasma, noncompartmental analysis)
Format: in vivo, Sprague-Dawley rats
Details: male, Sprague-Dawley, plasma, po; rat, p.o. 100 mg/kg
MEASURED_QUANTITY: AUC(0-inf)
Please format your answer as a value with the unit trailing.

compound C=C[C@@]1(C)CC[C@H]2C(=CC[C@@H]3[C@]2(C)CCC[C@@]3(C)C(=O)O)C1 , AUC(0-inf) observed: 2640 ng·h/mL

* * *

Assay: Pharmacokinetic study of IPA in rats after i.v. or oral administration (LC-MS/MS of plasma, noncompartmental analysis)
Type: in vivo, Sprague-Dawley rats
Details: male, Sprague-Dawley, plasma, po; rat, p.o. 200 mg/kg
MEASURED_QUANTITY: half-life (h)
Give the number; h is assumed, so skip it.

Recorded half-life (molecule C=C[C@@]1(C)CC[C@H]2C(=CC[C@@H]3[C@]2(C)CCC[C@@]3(C)C(=O)O)C1 ): 3.6
